- Experimental protocol: Tanguay_ZF_120hpf_SOMI_legacy: (Legacy) Oregon State University Tanguay Lab 120 Hour Post-fertilization zebrafish Assay for Somite Malformation (AID 2283647)
- Procedure: Tanguay_ZF_120hpf_legacy is a whole embryo, multiplexed endpoint assay using zebrafish larvae exposed for 120 hours post fertilization on a 96-well plate.Tanguay_ZF_120hpf_SOMI_legacy is one of one assay component(s) measured or calculated from the Tanguay_ZF_120hpf_legacy assay. […] This assay endpoint, Tanguay_ZF_120hpf_SOMI_legacy, was analyzed in the positive analysis fitting direction relative to DMSO as the negative control and baseline of activity. […]
Records with an inconclusive call do not appear. Calls of active or inactive are those of the source. How the source made its calls: active means hit-call score of the fitted dose curve at least 0.9, where 1 is the maximum; inconclusive means response in the unintended direction; inactive means score below 0.9.

# Compound, outcome
data = [
    ("CC[C@H](C)C(=O)O[C@H]1C[C@@H](C)C=C2C=C[C@H](C)[C@H](CC[C@@H]3C[C@@H](O)CC(=O)O3)[C@H]21", "inactive"),
    ("Cc1ccc(S(=O)(=O)O)cc1C", "inactive"),
    ("CNS(=O)(=O)c1cc(C(=O)N2CCC(CCN3C4CCC3CC(n3c(C)nc5ccccc53)C4)(c3cccc(F)c3)CC2)c(Cl)cc1F (stereo unspecified)", "inactive"),
    ("CCC(C)(C)C(=O)O[C@H]1C[C@@H](C)C=C2C=C[C@H](C)[C@H](CC[C@@H]3C[C@@H](O)CC(=O)O3)[C@H]21", "inactive"),
    ("CCOC(=O)COc1ccc2c(c1)CC(NCC(O)c1cccc(Cl)c1)CC2 (stereo unspecified)", "inactive"),
    ("CC(C)CCO", "inactive"),
    ("CC(C)CCCCCCOC(=O)c1ccc(C(=O)OCCCCCCC(C)C)c(C(=O)OCCCCCCC(C)C)c1", "inactive"),
    ("C1N2CN3CN1CN(C2)C3", "inactive"),
    ("COc1ccc(-n2nc(C(F)F)cc2-c2ccc(S(C)=O)cc2)cc1 (stereo unspecified)", "inactive"),
    ("On1ccccc1=S", "inactive"),
    ("Cc1c(-c2cccnc2)c2ccccc2n1CCCCC(=O)O", "inactive"),
]

###

- Read-out: Cytochrome P450 (CYP1A2), CYP1A2 (gene 1544)
- Experimental protocol: LTEA_HepaRG_CYP1A2: Life Technologies and Expression Analysis (LTEA) Assay for Cytochrome P450 (CYP1A2) using HepaRG (AID 2283479)
- Condition description: mRNA level, 48 h; actives raise or lower the signal
Calls of active or inactive are those of the source. Rule for the calls: active = hit-call score of the fitted dose curve at least 0.9, where 1 is the maximum; inactive = score below 0.9.
Outcome codes: class 1 for active, class 0 for inactive

# Compound, Classification
measured = [
    ("CCOC(=O)c1ccc(C2CCC(NC[C@H](O)COc3ccc(O)c(NS(C)(=O)=O)c3)CC2)cc1 (stereo not given in full)", "class 0"),
    ("Clc1nc(Cl)c(Cl)c(Cl)c1Cl", "class 0"),
    ("COC(=O)c1ccccc1O", "class 0"),
    ("O=c1n(CC2CO2)c(=O)n(CC2CO2)c(=O)n1CC1CO1 (stereo not given)", "class 0"),
    ("CCCCCCCCCCCCCCCO", "class 0"),
    ("Cn1cnc([N+](=O)[O-])c1Sc1ncnc2nc[nH]c12", "class 1"),
    ("O=C1CCCCCN1", "class 0"),
    ("CC(C)CC(C)(O)C#CC(C)(O)CC(C)C (stereo not given)", "class 0"),
    ("O=C(OC[C@H]1O[C@@H](OC(=O)c2cc(O)c(O)c(OC(=O)c3cc(O)c(O)c(O)c3)c2)[C@H](OC(=O)c2cc(O)c(O)c(OC(=O)c3cc(O)c(O)c(O)c3)c2)[C@@H](OC(=O)c2cc(O)c(O)c(OC(=O)c3cc(O)c(O)c(O)c3)c2)[C@@H]1OC(=O)c1cc(O)c(O)c(OC(=O)c2cc(O)c(O)c(O)c2)c1)c1cc(O)c(O)c(OC(=O)c2cc(O)c(O)c(O)c2)c1", "class 0"),
    ("CNCc1ccc(NC(=O)c2c[nH]c3c2C(=O)CCC3)cc1", "class 1"),
    ("COC(=O)CC(=O)OC", "class 0"),
    ("COC(=O)c1c(Cl)c(Cl)c(C(=O)OC)c(Cl)c1Cl", "class 0"),
    ("CCOCCOCCOCCO", "class 0"),
    ("CCCC(=O)OCC", "class 0"),
    ("CC(C)CCO", "class 0"),
    ("CC(C)CCCCCCOC(=O)c1ccc(C(=O)OCCCCCCC(C)C)c(C(=O)OCCCCCCC(C)C)c1", "class 1"),
    ("CC/C(=C\\C(=N/O)C(N)=O)C(C)[N+](=O)[O-] (stereo not given)", "class 1"),
    ("Nc1ccc(Nc2ccccc2)cc1", "class 1"),
    ("Cc1c(-c2cccnc2)c2ccccc2n1CCCCC(=O)O", "class 1"),
    ("COc1cccc(-c2ccc(/C=C\\CN3CCCCCC3)cc2Cl)c1", "class 1"),
    ("CCCCC(CC)COC(=O)CCCCCCCCC(=O)OCC(CC)CCCC (stereo not given)", "class 0"),
    ("C1N2CN3CN1CN(C2)C3", "class 1"),
    ("CC[C@H]1OC(=O)[C@H](C)[C@@H](O[C@H]2C[C@@](C)(OC)[C@@H](O)[C@H](C)O2)[C@H](C)[C@@H](O[C@@H]2O[C@H](C)C[C@H](N(C)C)[C@H]2O)[C@](C)(O)C[C@@H](C)C(=O)[C@H](C)[C@@H](O)[C@]1(C)O", "class 1"),
    ("O=C(CCCCCCCCc1cccnc1)N1CCC(C=C(c2ccccc2)c2ccccc2)CC1", "class 1"),
    ("O=C(O)c1cccc(Oc2ccccc2)c1", "class 1"),
]
